src = a melting point compilation (Tetko et al.; mined from patent text by program, amines drawn as free bases though some values may be those of a salt)

As shown below, each of these compounds has a reported melting point value.

Example cases with answers are listed next.
compound: O=C(O)c1ccc(-c2nc(-c3ccc(OC(F)(F)F)cc3)cs2)cc1
melting point: 245 to 246 °C
//
compound: CCC(=O)C(Cc1cc(O)c(O)c([N+](=O)[O-])c1)C(=O)CC
melting point: 126 to 131 °C
//
compound: CC(CC(C#N)(c1ccccc1)c1ccccn1)N1CCN(C)CC1 (stereo unspecified)
melting point: 89 to 90 °C
//
compound: Cc1cc(C)c(COc2cccc3c2C(=O)c2c(Cl)ccc(Cl)c2C3=O)c(C)c1
melting point: 216 to 218 °C
//
compound: CC(O)=C(C#N)C(=O)Nc1ccc(OC(F)(F)F)cc1
melting point: 171 to 176 °C

Prompt: Look at this compound and give its reported melting point. C/C=C/c1ccc2c(NCc3ccc(NC(=O)C4CCN(Cc5ccccc5)CC4)cc3)nc(N(C)C)nc2c1
Completion: 154 °C

Prompt: Look at this compound and give its reported melting point. COc1c(C=C[N+](=O)[O-])cc2c(c1OC)CCC2
Completion: 104 °C

Prompt: Look at this compound and give its reported melting point. Nc1cn(-c2cncc(F)c2)nc1Br
Completion: 164 to 165 °C

Prompt: Look at this compound and give its reported melting point. N#CC1CN1OCc1ccc(Cl)cc1 (stereo unspecified)
Completion: 45 to 48 °C

Prompt: Look at this compound and give its reported melting point. Cc1cccc(-c2n[nH]cc2-c2ccc(F)c(-c3ccc(N4CCN(C)CC4)cn3)c2)n1
Completion: 97 °C

Prompt: Look at this compound and give its reported melting point. COc1cc(Cl)nc(NC(=O)NS(=O)(=O)c2ccccc2OC(Cl)=CCl)n1
Completion: 196 to 198 °C

Prompt: Look at this compound and give its reported melting point. COc1ccc(S(=O)(=O)Nc2ccccc2Nc2cccc(O)c2)cc1
Completion: 165 to 166 °C

Prompt: Look at this compound and give its reported melting point. CC(C)N(O)C(=O)CCC1C=CC2=C(Cc3ccccc3CO2)C1=O (stereo unspecified)
Completion: 118 °C

Prompt: Look at this compound and give its reported melting point. O=c1sc(CO)c(C(F)(F)F)n1CC=C(Cl)Cl
Completion: 81 °C

Prompt: Look at this compound and give its reported melting point. CCCn1nc(-c2ccc(OC)cc2)c2cccc(-c3ccccc3)c21
Completion: 58 to 59 °C

Prompt: Look at this compound and give its reported melting point. COc1cc(N)c2nccc(C)c2c1OC
Completion: 108 to 110 °C

Prompt: Look at this compound and give its reported melting point. COc1ccc2c(c1)Oc1cccc([N+](=O)[O-])c1N2
Completion: 197 to 199 °C

Prompt: Look at this compound and give its reported melting point. CS(=O)(=O)c1cccc(Nc2cc(-c3ccccc3OCc3ccccc3)ncn2)c1
Completion: 199 to 205 °C

Prompt: Look at this compound and give its reported melting point. O=C(Cc1cccnc1)[N+]1([O-])CCC(=C2c3ccc(Cl)cc3CCc3cccnc32)CC1 (stereo unspecified)
Completion: 120 to 121 °C

Prompt: Look at this compound and give its reported melting point. CCCCCCCCCCCC1=NCCO1
Completion: 71 to 74 °C

Prompt: Look at this compound and give its reported melting point. O=C(c1ccc(F)cc1F)C1CCN(CC2=Cc3ccccc32)CC1
Completion: 70 °C
